Biological target: T1, Cyno NRP-1 His (cynomolgus monkey, UniProt O14786 22-856 (human entry), limits assumed)
T1 construct: Recombinant monomeric protein; also called cynomolgus monkey NRP-1-His; cNRP-1; not shown: His tag
T1 chain: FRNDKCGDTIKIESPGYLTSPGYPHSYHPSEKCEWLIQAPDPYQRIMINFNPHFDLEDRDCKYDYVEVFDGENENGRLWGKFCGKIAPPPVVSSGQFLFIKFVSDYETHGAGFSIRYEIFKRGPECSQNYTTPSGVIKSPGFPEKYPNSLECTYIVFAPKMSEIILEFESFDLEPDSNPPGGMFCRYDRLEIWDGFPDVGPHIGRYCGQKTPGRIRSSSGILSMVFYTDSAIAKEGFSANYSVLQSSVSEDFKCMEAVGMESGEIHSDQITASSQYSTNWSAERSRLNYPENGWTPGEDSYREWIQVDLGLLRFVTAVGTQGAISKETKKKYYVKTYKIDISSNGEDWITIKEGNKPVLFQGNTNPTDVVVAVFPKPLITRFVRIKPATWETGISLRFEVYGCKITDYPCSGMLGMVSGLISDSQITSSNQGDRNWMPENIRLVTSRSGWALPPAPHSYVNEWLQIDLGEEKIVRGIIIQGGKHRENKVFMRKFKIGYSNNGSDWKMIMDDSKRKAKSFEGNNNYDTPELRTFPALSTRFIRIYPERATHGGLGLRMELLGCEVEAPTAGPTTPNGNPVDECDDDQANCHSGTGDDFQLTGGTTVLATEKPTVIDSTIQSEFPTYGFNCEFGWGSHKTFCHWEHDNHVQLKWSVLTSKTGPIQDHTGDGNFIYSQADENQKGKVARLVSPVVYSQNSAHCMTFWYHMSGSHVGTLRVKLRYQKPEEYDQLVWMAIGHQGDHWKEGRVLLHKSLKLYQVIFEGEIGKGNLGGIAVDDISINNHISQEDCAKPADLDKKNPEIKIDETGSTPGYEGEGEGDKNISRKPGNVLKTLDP
Test: BLI ForteBio, IgG1 N297A on AHQ sensor, 100 nM monomeric antigen, 1:1 fit
MEASURE NAME: pKd
Answer as the number alone; pKd is minus log10 of concentration in mol/L.

// known answers, use as guide
MAB11 (antibody, V domains shown) VH: EVQLLESGGGLVQPGGSLRLSCAASGFTFSSVAMVWVRQAPGKGLEWVSAISGSGGATYYADSVEGRFTISRDNSKNTLYLQMSSLRAEDTAVYYCAKDPGYDSSRYYYSNYGMDVWGQGTTVTVSS VL: DIQMTQSPSSLSASVGDRVTITCRASQSISSYLNWYQQKPGKAPKLLIYGASSLQSGVPSRFSGSGSGTDFTLTISSLQPEDFATYYCQQTYSLYTFGGGTKVEIK	9.32
MAB7 (antibody, V domains shown) VH: EVQLVESGGGLVQPGGSLRLSCAASGFTFSSYWMEWVRQAPGKGLEWVARIKRDGSEKYYVDSVKGRFTISRDNAKNSLYLQMNSLRAEDTAVYYCARDQGYKTPTDFDLWGRGTLVTVSS VL: DIQMTQSPSSLSASVGDRVTITCQASQDITNYLNWYQQKPGKAPKLLIYDASNLETGVPSRFSGSGSGTDFTFTISSLQPEDIATYYCQQSDVLPITFGGGTKVEIK	7.96

Let's switch to this binder now.
// Input: MAB2 (antibody, V domains shown) VH: QVQLVQSGAEVKKPGASVKVSCKASGYTFRSYYMLWVRQAPGQGLEWMGIIDPSDGSTSYAQKFQGRVTMTRDASTSTVYMELSSLRSEDTAVYYCARGARRITGYGMDVWGQGTTVIVSS VL: DIQMTQSPSSVSASVGDRVTITCRASQGISSWLAWYQQKPGKAPKLLIYAASNLQSGVPSRFSGSGSGTDFTLTISSLQPEDFATYYCQQASVFPFTFGGGTKVEIK . Output its pKd only.
8.61
